system: MALME-3M melanoma; test: NCI-60 one-dose screen, 48 h (100 = growth as untreated, 0 = no growth, -100 = all killed); conditions: 10 µM unless noted
About 83,000 compounds went through this panel and 20% of them were active in at least one assay; those are over-represented in the sample as a whole. Calls of active or inactive are those of the source. The calls were made as follows: active = growth percent below 10; inactive = the rest.
Can you tell me growth for the items I'm about to list?

Worked cases, answers included:
- compound: "Cc1ccc2c(n1)C(=O)C(Cl)=C(Nc1ccc(C(=O)OC(C)(C)C)cc1)C2=O"
  assayed_target: "MALME-3M melanoma"
  property_label: "growth"
  readout_value: "24% [9.25 µM] (inactive)"
- compound: "CN1CCN(c2ccc(Nc3nc(NCCCNS(=O)(=O)c4cccc5ccccc45)c4sccc4n3)cc2)CC1"
  assayed_target: "MALME-3M melanoma"
  property_label: "growth"
  readout_value: "-91.6% (active)"
- compound: "N#CC1=C2NCCCNc3oc(nc3C#N)Cc3ccccc3CC(=N1)O2"
  assayed_target: "MALME-3M melanoma"
  property_label: "growth"
  readout_value: "97.8% (inactive)"

Okay, here is my list. What is growth for each of these?
1. COc1ccc(-c2cc(-c3ccc(N(C)C)cc3)n3c(n2)nc2ccccc23)cc1
2. CCOc1cccc(/C(N)=N/C(N)=N/c2nc3ccccc3s2)c1
3. Cn1cc(-c2nnc(N)nc2-c2c[nH]c3ccc(F)cc23)c2cc(Br)ccc21

## Output
["118% (inactive)", "115% (inactive)", "41.7% (inactive)"]

Okay, here is my list. What is growth for each of these?
1. COc1ccc(C2c3[nH]c4ccc(Cl)cc4c3CCN2c2oc(CO)nc2C#N)cc1 (stereo not drawn)
2. CCOC(=O)c1c(NCC(=O)Nc2cccc([N+](=O)[O-])c2)sc(C(C)=O)c1C
3. Oc1ccc(-c2nc3ccc(/C(=N\N=C\c4ccc(Cl)cc4)c4ccccc4)cc3[nH]2)cc1
4. c1ccc(-c2cn3c(-c4c[nH]c5ccccc45)csc3n2)cc1
5. CN1CCN(CCCCCC(=O)Nc2nc(-c3cccc(NS(=O)(=O)c4cccc5c(N(C)C)cccc45)c3)cs2)CC1

## Output
1. 72.1% (inactive)
2. -21.8% (active)
3. 101% (inactive)
4. 69.6% (inactive)
5. 17.5% (inactive)

Okay, here is my list. What is growth for each of these?
1. Cc1ccc(NC2=C(Cl)C(=O)c3nc(C)ccc3C2=O)c(C)c1
2. CCCCCCOC(=O)c1cc(-c2ccc(F)cc2)nc2ccccc12
3. CCCCCCCCCCCC(=O)NC(C)(C)C(=O)N1CCCC1C(=O)NC(C)(C)C(=O)NC(C)(C)C(=O)N1CCCC1C(=O)NC(C)(C)C(=O)NC(C)(C)C(=O)N1CCCC1C(=O)NC(C)C(=O)NCCC(=O)NC(C)C(=O)NC(C)(C)C(=O)NC(C)(C)C(=O)NC(C)(C)C(=O)NCCC(=O)NC(C)(C)C(=O)NC(C)(C)C(=O)NC(C)(C)C(=O)NC(C)C(=O)NCCC(=O)O (stereo not drawn)
4. N#C/C(=C\c1ccc(-c2ccc(Cl)c(Cl)c2)o1)C(=O)Nc1ncc(Cc2ccc(Cl)cc2)s1
5. O=C(Nc1cc(C(F)(F)F)cc(C(F)(F)F)c1)Nc1ccc2oc(=O)ccc2c1
6. NS(=O)(=O)c1ccc(Nc2nc(Nc3ccccc3)nc(N3N=C(c4ccc(Cl)cc4)CC3c3ccc(Cl)cc3)n2)cc1 (stereo not drawn)

## Output
1: 13.9% (inactive); 2: 97.1% (inactive); 3: -89.4% (active); 4: 17.2% (inactive); 5: -26.4% (active); 6: 42.5% (inactive)
